# System: HRV 71
# measurement description: Cytopathic effect (CPE) inhibition assay
# Type: cell-based, human rhinovirus
# run conditions: Human rhinovirus sp., 72 h; host cell HeLa, 3 days, MEM/2% FBS, MTT assay; read-out: EC50 HRV 71
molecules and their reported EC50

Field: example entries. Status: answers known.
- molecule: "CC(C)c1ccc2c(c1)OC1(O)c3ccccc3C(=O)C21NC(=O)C(=O)Cc1ccccc1[N+](=O)[O-] (stereo not shown)"
  test target: "HRV 71"
  result value: "> 1.76 µg/mL"
- molecule: "CC(C)c1ccc2c(c1)OC1(O)c3ccccc3C(=O)C21NC(=O)C(=O)c1c[nH]c2ccccc12 (stereo not shown)"
  test target: "HRV 71"
  result value: "> 7.91 µg/mL"
- molecule: "Cc1cc2c(cc1C)C1(NC(=O)C(=O)c3ccccc3)C(=O)c3ccccc3C1(O)O2 (stereo not shown)"
  test target: "HRV 71"
  result value: "> 10 µg/mL"

Let's switch to this molecule now.
Look up EC50: CC(C)c1ccc2c(c1)OC1(O)c3ccccc3C(=O)C21NC(=O)C(=O)c1ccccc1 (stereo not shown) > 8.72 µg/mL
